system: Mut-p53; assay: Total activity score over combined assays (Table 8); parameters: scale not given here; settings: Table 10 summary of activity of the peptides tested
Primed or numbered codes have the meaning given here. Where no end group is shown, it is not given here. The star is where a group is joined. FITC′ = fluorescein isothiocyanate label at the N-terminus; Myristoyl = CCCCCCCCCCCCCC(=O)*
Think of 8 as a floor: if Activity Score stands on it or above, it is Yes; beneath it, No.

[in] Does the substance pCAP38 (WTLSNYL) have recorded Activity Score that is 8 or more?
[out] No

[in] Does the reported Activity Score for pCAP84 (GRRRFCM) fall at or above the 8 mark?
[out] No

[in] Confirm if Activity Score reported for the substance pCAP120 (SIRTLGRFLIIRV) is 8 or above.
[out] No

[in] Does Activity Score meet or surpass 8 for pCAP33 (SILTLRLRRLRR) ?
[out] Yes

[in] Is it the case that pCAP39 (DSLHSTY) has Activity Score reaching or exceeding 8?
[out] No

[in] Hello, I need to know if pCAP4 (EHDFEVRGDVVNGRNHQGPK) has measured Activity Score not below 8. Thanks!
[out] No

[in] # bool: Activity Score of pCAP156 (VPHIHEFTRRRRRRRR) >= 8
[out] No

[in] Item pCAP109 (GPIKHHLQHH) with Activity Score of 8 or above?
[out] No

[in] hey, is Activity Score for this one >= 8? pCAP237 (HTIHVHYPGNRQPNPPLILQR)
[out] Yes

[in] Does the substance pCAP321 (RNIIIRDFIHFSHIDR) have recorded Activity Score that is 8 or more?
[out] No

[in] Answer whether Activity Score of pCAP296 (RPADRIRR) is greater than or equal to 8.
[out] No

[in] Can pCAP108 (IIRGNFLIGGRL) be said to have Activity Score at or above 8?
[out] Yes

[in] For this substance, is measured Activity Score 8 or higher? pCAP303 (IVEFRIRR)
[out] No

[in] // inclusive: Activity Score at least 8? input: pCAP228 (DEDAAHSTGHPHNSQHRRRR)
[out] No

[in] Exam item: decide whether the reported Activity Score for pCAP299 (ILQPDFLIRPE) is at least 8.
[out] No

[in] # bool: Activity Score of pCAP242 (Myristoyl-RRLIVRILKLPNPPER) >= 8
[out] Yes

[in] Reported Activity Score at or above 8? pCAP207 (RRSRSNEDVEDKTEDE)
[out] No

[in] Could you please find out whether pCAP323 (Myristoyl-DLHTIHIPRDRR) has Activity Score that meets 8 or exceeds it?
[out] No

[in] Reported Activity Score reaches at least 8 for pCAP19 (NPNTYVPHWMRQ) ?
[out] No

[in] Please tell me: is the substance pCAP70 (SILTLSRGRKKRRQRRRR) at or over 8 in terms of Activity Score?
[out] Yes

[in] Confirm if Activity Score reported for the substance pCAP145 (HSSHHHPVHSWNRRRRRRR) is 8 or above.
[out] No

[in] Does the reported Activity Score for pCAP11 (EWKERLDKEFSLSVYQKMKF) fall at or above the 8 mark?
[out] Yes

[in] In plain terms: is recorded Activity Score at least 8 for pCAP111 (SNIHHQV) ?
[out] No

[in] Entry pCAP226 (DDSDNRIIRYRR) : is its Activity Score no less than 8?
[out] No

[in] # bool: Activity Score of pCAP310 (RLRCLLLLIGRVGRR) >= 8
[out] No

[in] Tell me whether Activity Score is at least 8 here: pCAP293 (RRIRIDPQHD)
[out] No

[in] Hi, just wondering whether pCAP221 (Myristoyl-RRKHNKHRPEPDSDER) shows Activity Score of 8 or higher.
[out] Yes

[in] API: above_or_equal(metric=Activity Score, cutoff=8) for item pCAP206 (RRRSHSQENVDQDTDE)
[out] Yes

[in] I'd appreciate it if you could say whether pCAP99 (GLHLFTTDRQGW) has Activity Score at least equal to 8.
[out] No

[in] Please check the record pCAP77 (SEYLCSSLDAAG) and state if its Activity Score is at or above 8.
[out] No

[in] Test whether the substance pCAP236 (RRRSTNTFLGEDFDQ) records Activity Score of 8 or higher.
[out] No

[in] Assess whether reported Activity Score for pCAP268 (TPSYGHTPSHHRRR) sits at 8 or higher.
[out] Yes

[in] Does the reported Activity Score for pCAP14 (HHFSHHWKT) fall at or above the 8 mark?
[out] Yes

[in] Would you say pCAP294 (FKPERFPQNDRRR) shows Activity Score at minimum 8?
[out] No

[in] Please tell me: is the substance pCAP105 (SRIVLGW) at or over 8 in terms of Activity Score?
[out] No

[in] Tell me whether Activity Score is at least 8 here: pCAP295 (LDLYHPRERR)
[out] No

[in] Is it the case that pCAP75 (TRILCIVRKKRRQRRRRGDR) has Activity Score reaching or exceeding 8?
[out] Yes

[in] Is Activity Score at least 8? Consider pCAP317 (RRDIHTIHPFYQ)
[out] Yes

[in] Item pCAP85 (KLTIHHH) with Activity Score of 8 or above?
[out] No

[in] Could you please find out whether pCAP244 (RRVSELQRNKHGRKHEL) has Activity Score that meets 8 or exceeds it?
[out] No

[in] Could you tell me if the measured Activity Score of pCAP114 (AISHHTR) reaches 8 or more?
[out] No

[in] Is the recorded value of Activity Score equal to or greater than 8 for this substance? pCAP266 (HHRLSYFIVRRHSTHASR)
[out] No

[in] Identify whether the reported Activity Score of the following substance is 8 or greater: pCAP240 (TEQHHYIPHRRR)
[out] No

[in] Tell me whether Activity Score is at least 8 here: pCAP154 (LRCLLLLIGRVGRKKRRQRR)
[out] Yes

[in] Could you tell me if the measured Activity Score of pCAP160 ({FITC′}-SFILFIRRGRLGRRRRRRRRR) reaches 8 or more?
[out] Yes

[in] Could you verify whether the entry pCAP254 (NHFDYDTIELDTAGEYSRRR) shows Activity Score of no less than 8?
[out] No

[in] Reported Activity Score at or above 8? pCAP222 (RYEENNGVNPPVQVFESRTR)
[out] No

[in] In plain terms: is recorded Activity Score at least 8 for pCAP231 (HRTQSTLILFIRRGRET) ?
[out] Yes

[in] Exam item: decide whether the reported Activity Score for pCAP115 (HPHNHTVHNVVY) is at least 8.
[out] No

[in] Form field: Activity Score at least 8? Entry: pCAP43 (TDSHSHH)
[out] Yes

[in] Can pCAP45 (HDTHNAHVG) be said to have Activity Score at or above 8?
[out] No

[in] Item pCAP135 (HTDSHPHHHHPHRRRRR) with Activity Score of 8 or above?
[out] Yes

[in] Identify whether the reported Activity Score of the following substance is 8 or greater: pCAP3 (FWTQSIKERKMLNEHDFEVR)
[out] Yes

[in] In plain terms: is recorded Activity Score at least 8 for pCAP88 (SYQTMQP) ?
[out] No

[in] Textbook exercise: given the entry pCAP23 (IRILMFLIGCGR) , state whether its Activity Score is greater than or equal to 8.
[out] Yes

[in] In plain terms: is recorded Activity Score at least 8 for pCAP126 (RRLRICV) ?
[out] No

[in] # check: Activity Score of pCAP131 (LPNPPERHHRRRRRRRRRRR) is greater than or equal to 8
[out] Yes
